# maps each entry to its remaining at 1 h
Test: in vitro
Conditions: human, liver microsomes
Description: Metabolic stability in human liver microsomes assessed as compound remaining after 1 hr
Response body: numeric value in %, unit text excluded.

Q) remaining at 1 h for `COc1ccc(-c2ccc(CO[C@@H]3COc4nc([N+](=O)[O-])cn4C3)cc2)cn1` ?
A) 40

Q) remaining at 1 h for `O=[N+]([O-])c1cn2c(n1)OC[C@@H](OCc1ccc(-c3ccnc(F)c3)cc1)C2` ?
A) 93

Q) remaining at 1 h for `O=[N+]([O-])c1cn2c(n1)OC[C@@H](OCc1ccc(-c3ccc(OC(F)(F)F)cc3)nn1)C2` ?
A) 94

Q) remaining at 1 h for `O=[N+]([O-])c1cn2c(n1)OC[C@@H](OCc1cncc(-c3ccc(F)cc3)c1)C2` ?
A) 71

Q) remaining at 1 h for `O=[N+]([O-])c1cn2c(n1)OC[C@@H](OCc1cnc(-c3ccc(OC(F)(F)F)cc3)nc1)C2` ?
A) 96

---

Test: physchem
Conditions: water, pH 7
Description: Solubility of the compound in water at pH 7.0 by HPLC
Please enter t where solubility is greater than or equal to 7 µg/mL, and f where it is lower.

N#Cc1ccc(-c2cc(CO[C@@H]3COc4nc([N+](=O)[O-])cn4C3)ccn2)cc1 t
O=[N+]([O-])c1cn2c(n1)OC[C@@H](OCc1ccnc(-c3ccc(OC(F)(F)F)cc3)c1)C2 f
O=[N+]([O-])c1cn2c(n1)OC[C@@H](OCc1ccc(-c3ccccn3)cc1)C2 t
O=[N+]([O-])c1cn2c(n1)OC[C@@H](OCc1ccccc1-c1cccnc1)C2 t

Next molecule, please.
Q) Kindly determine if solubility recorded for `COc1ccc(-c2ccc(CO[C@@H]3COc4nc([N+](=O)[O-])cn4C3)cc2)nc1` is above or exactly 7 µg/mL.
A) f

---

Experiment: Half life in Sprague-Dawley rat at 1 mg/kg, iv administered as single dose
Type: ADME, organism-based
Parameters: dose 1 mg/kg, route intravenous
Conditions: in vivo
parameter: half-life (h)
Response body: numeric value in h, unit text excluded.

Q) half-life for `O=[N+]([O-])c1cn2c(n1)OC[C@@H](OCc1ccc(-c3ccc(OC(F)(F)F)c(F)c3)nc1)C2` ?
A) 33

---

Assay: physchem
Conditions: water, pH 7
Please enter yes where solubility is greater than or equal to 10 µg/mL, and no where it is lower.

O=[N+]([O-])c1cn2c(n1)OC[C@@H](OCc1cccc(-c3ccc(F)nc3)c1)C2 yes

Q) Kindly determine if solubility recorded for `O=[N+]([O-])c1cn2c(n1)OC[C@@H](OCc1cc(-c3ccc(OC(F)F)cc3)ccn1)C2` is above or exactly 10 µg/mL.
A) yes

Q) Kindly determine if solubility recorded for `O=[N+]([O-])c1cn2c(n1)OC[C@@H](OCc1cncc(-c3ccc(OC(F)F)cc3)c1)C2` is above or exactly 10 µg/mL.
A) no

Q) Kindly determine if solubility recorded for `O=[N+]([O-])c1cn2c(n1)OC[C@@H](OCc1cncc(-c3ccc(C(F)(F)F)cc3)c1)C2` is above or exactly 10 µg/mL.
A) no

Q) Kindly determine if solubility recorded for `O=[N+]([O-])c1cn2c(n1)OC[C@@H](OCc1ccc(-c3ccc(F)nc3)cn1)C2` is above or exactly 10 µg/mL.
A) yes

Q) Kindly determine if solubility recorded for `COc1ccc(-c2ccc(CO[C@@H]3COc4nc([N+](=O)[O-])cn4C3)nn2)cn1` is above or exactly 10 µg/mL.
A) yes

Q) Kindly determine if solubility recorded for `O=[N+]([O-])c1cn2c(n1)OC[C@@H](OCc1ccc(-c3ccc(Cl)c(OC(F)(F)F)c3)cn1)C2` is above or exactly 10 µg/mL.
A) no

Q) Kindly determine if solubility recorded for `COc1ccc(-c2cc(CO[C@@H]3COc4nc([N+](=O)[O-])cn4C3)ccn2)cc1F` is above or exactly 10 µg/mL.
A) no

---

Assay: AUC (0-infinity) in CD1 mouse plasma at 40 mg/kg, po administered as single dose
Format: ADME, organism-based
Design: time infinity, dose 40 mg/kg, route oral
parameter: AUC(0-inf)

O=[N+]([O-])c1cn2c(n1)OC[C@@H](OCc1cnc(-c3ccc(OC(F)(F)F)cc3)cn1)C2 152 µg·h/mL

Q) AUC(0-inf) for `O=[N+]([O-])c1cn2c(n1)OC[C@@H](OCc1ccc(-c3ccc(OC(F)(F)F)cc3)cc1)C2` ?
A) 198 µg·h/mL

Q) AUC(0-inf) for `O=[N+]([O-])c1cn2c(n1)OC[C@@H](OCc1ccc(-c3ccc(OC(F)(F)F)cc3)nn1)C2` ?
A) 52 µg·h/mL

Q) AUC(0-inf) for `O=[N+]([O-])c1cn2c(n1)OC[C@@H](OCc1ccc(-c3ccc(F)cc3)nc1)C2` ?
A) 61 µg·h/mL

Q) AUC(0-inf) for `O=[N+]([O-])c1cn2c(n1)OC[C@@H](OCc1ccc(-c3ccc(OC(F)(F)F)c(Cl)c3)nc1)C2` ?
A) 88 µg·h/mL

Q) AUC(0-inf) for `O=[N+]([O-])c1cn2c(n1)OC[C@@H](OCc1ccc(-c3ccc(OC(F)(F)F)cc3)nc1)C2` ?
A) 296 µg·h/mL

---

Experiment: Thermodynamic solubility in aqueous buffer at pH 1 at 20 degC by HPLC
Type: physicochemical
Details: aqueous buffer
Please enter YES where solubility thermodynamic is greater than or equal to 10 µg/mL, and NO where it is lower.

Q) Kindly determine if solubility thermodynamic recorded for `O=[N+]([O-])c1cn2c(n1)OC[C@@H](OCc1cnc(-c3ccc(OC(F)(F)F)cc3)nc1)C2` is above or exactly 10 µg/mL.
A) NO

Q) Kindly determine if solubility thermodynamic recorded for `O=[N+]([O-])c1cn2c(n1)OC[C@@H](OCc1ccc(-c3ccc(C(F)(F)F)nc3)cc1)C2` is above or exactly 10 µg/mL.
A) NO

Q) Kindly determine if solubility thermodynamic recorded for `O=[N+]([O-])c1cn2c(n1)OC[C@@H](OCc1ccc(-c3ccc(OC(F)(F)F)c(Cl)c3)nc1)C2` is above or exactly 10 µg/mL.
A) YES

Q) Kindly determine if solubility thermodynamic recorded for `O=[N+]([O-])c1cn2c(n1)OC[C@@H](OCc1ccc(OC(F)(F)F)cc1)C2` is above or exactly 10 µg/mL.
A) YES

Q) Kindly determine if solubility thermodynamic recorded for `O=[N+]([O-])c1cn2c(n1)OC[C@@H](OCc1ccc(-c3ccc(OC(F)(F)F)c(F)c3)nc1)C2` is above or exactly 10 µg/mL.
A) YES

Q) Kindly determine if solubility thermodynamic recorded for `O=[N+]([O-])c1cn2c(n1)OC[C@@H](OCc1cnc(-c3ccc(OC(F)(F)F)cc3)cn1)C2` is above or exactly 10 µg/mL.
A) NO

Q) Kindly determine if solubility thermodynamic recorded for `O=[N+]([O-])c1cn2c(n1)OC[C@@H](OCc1ccc(-c3ccc(C(F)(F)F)cn3)cc1)C2` is above or exactly 10 µg/mL.
A) NO

---

Experiment: physchem
Details: water, pH 7
# maps each entry to its solubility
Response body: numeric value in µg/mL, unit text excluded.

Illustrative cases are given below, each with its answer.
O=[N+]([O-])c1cn2c(n1)OC[C@@H](OCc1cc(-c3ccc(C(F)(F)F)cc3)ccn1)C2 43
O=[N+]([O-])c1cn2c(n1)OC[C@@H](OCc1ccc(-c3ccc(C(F)(F)F)nc3)nc1)C2 7
O=[N+]([O-])c1cn2c(n1)OC[C@@H](OCc1cccc(-c3ccc(C(F)(F)F)nc3)c1)C2 1.1
O=[N+]([O-])c1cn2c(n1)OC[C@@H](OCc1ccc(-c3ccc(OC(F)(F)F)c(F)c3)cn1)C2 30
O=[N+]([O-])c1cn2c(n1)OC[C@@H](OCc1ccc(-c3ccc(C(F)(F)F)cn3)cn1)C2 5.9
COc1ccc(-c2ccnc(CO[C@@H]3COc4nc([N+](=O)[O-])cn4C3)c2)cn1 96
O=[N+]([O-])c1cn2c(n1)OC[C@@H](OCc1cnc(-c3ccc(OC(F)F)cc3)nc1)C2 1.1

Continue with the compound presented below.
Q) solubility for `O=[N+]([O-])c1cn2c(n1)OC[C@@H](OCc1cccc(-c3ccc(OC(F)F)cc3)n1)C2` ?
A) 9.6

---

Test: AUClast in Sprague-Dawley rat at 1 mg/kg, iv administered as single dose
Type: ADME, organism-based
Parameters: time 0 - last, dose 1 mg/kg, route intravenous
Conditions: plasma
parameter: AUC(0-t) (ng·h/mL)
Response body: numeric value in ng·h/mL, unit text excluded.

Q) AUC(0-t) for `O=[N+]([O-])c1cn2c(n1)OC[C@@H](OCc1ccc(-c3ccc(OC(F)(F)F)c(F)c3)nc1)C2` ?
A) 6970

---

Test: Oral bioavailability in Sprague-Dawley rat at 20 mg/kg, po administered as single dose
Assay type: ADME, organism-based
Details: in vivo
# maps each entry to its bioavailability
Response body: numeric value in %, unit text excluded.

Illustrative cases are given below, each with its answer.
O=[N+]([O-])c1cn2c(n1)OC[C@@H](OCc1ccc(-c3ccc(OC(F)(F)F)cc3)cn1)C2 46
O=[N+]([O-])c1cn2c(n1)OC[C@@H](OCc1cnc(-c3ccc(OC(F)(F)F)cc3)cn1)C2 45
O=[N+]([O-])c1cn2c(n1)OC[C@@H](OCc1ccc(-c3ccc(OC(F)(F)F)c(F)c3)nc1)C2 93

Continue with the compound presented below.
Q) bioavailability for `O=[N+]([O-])c1cn2c(n1)OC[C@@H](OCc1ccc(-c3ccc(OC(F)(F)F)cc3)nc1)C2` ?
A) 62

Sourced from ChEMBL document CHEMBL1629541
